Test system: A498 renal
Test: NCI tumour cell line growth inhibition, 48 h; in the data active = GI50 below about 0.43 µM; inactive = the rest
Possible outcomes: Yes for active, No for inactive

• COc1ccc2nc(-c3cc4c([nH]c5ccccc54)c(-c4ccc(F)c(F)c4)n3)[nH]c2c1 = No
• COc1cc(C)c(NC(=O)CN(C)C)cc1Nc1nc(Nc2cccc(F)c2C(N)=O)c2cc[nH]c2n1 = No
• O=C(O)c1ccccc1Nc1ccc2nnc(-c3ccncc3)n2n1 = No
• Nc1ccc(-c2ccc(-c3nc4cc(Cl)c(Cl)cc4[nH]3)cc2)cc1 = No
• COc1cc(N2CCC(N3CCN(C)CC3)CC2)ccc1Nc1ncc(Cl)c(Nc2ccccc2S(=O)(=O)C(C)C)n1 = Yes
